# credit: patent US5047512A

# TESTED_TARGET: cyclophilin (Bos taurus)
# Construct: from tissue; host or cells: purified from tissue cytosol
# Sequence (P62935 whole entry): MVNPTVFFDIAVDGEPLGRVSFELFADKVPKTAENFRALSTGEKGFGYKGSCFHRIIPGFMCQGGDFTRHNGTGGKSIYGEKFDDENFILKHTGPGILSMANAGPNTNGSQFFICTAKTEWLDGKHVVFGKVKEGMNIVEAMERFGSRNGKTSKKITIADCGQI
# ASSAY_PROCEDURE: Cyclophilin affinity: enhancement of the intrinsic tryptophan fluorescence of cyclophilin by CsA or analogs
# Format: binding
# TEST_CONDITIONS: ligand 0.25 ug/ml, 5 ug/ml cyclophilin, pH 7.2
Where a SMILES comes first, the peptide text is derived from it. [ ]: non-standard residue; d: D form. NMe(dihydroBmt) = CCCC[C@@H](C)[C@@H](O)[C@H](NC)C(=O)O; NMeL = CN[C@@H](CC(C)C)C(=O)O; NMeV = CN[C@H](C(=O)O)C(C)C; Sar = CNCC(=O)O
Reported Cyclophilin affinity 0.25 ug/ml values follow for various compounds
Please reply with the value in numeric form only.

# COMPOUND, Cyclophilin affinity 0.25 ug/ml
rows = [
    ("CCCC[C@@H](C)[C@@H](O)[C@H]1C(=O)N[C@@H]([C@@H](C)O)C(=O)N(C)CC(=O)N(C)[C@@H](CC(C)C)C(=O)N[C@@H](C(C)C)C(=O)N(C)[C@@H](CC(C)C)C(=O)N[C@@H](C)C(=O)N[C@H](C)C(=O)N(C)[C@@H](CC(C)C)C(=O)N(C)[C@@H](CC(C)C)C(=O)N(C)[C@@H](C(C)C)C(=O)N1C [Dihydro-CsC] (cyclo(A[dA][NMeL][NMeL][NMeV][NMe(dihydroBmt)]T[Sar][NMeL]V[NMeL]))", 0.33),
    ("C/C=C/C[C@@H](C)[C@@H](O)[C@H]1C(=O)N[C@@H]([C@@H](C)O)C(=O)N(C)CC(=O)N(C)[C@@H](CC(C)C)C(=O)N[C@@H](C(C)C)C(=O)N(C)[C@@H](CC(C)C)C(=O)N[C@@H](C)C(=O)N[C@H](C)C(=O)N(C)[C@@H](CC(C)C)C(=O)N(C)[C@@H](CC(C)C)C(=O)N(C)[C@@H](C(C)C)C(=O)N1C [CsC, cyclosporin C]", 0.31),
]

Now let's try a different one.
Query: Can you look up Cyclophilin affinity 0.25 ug/ml on cyclophilin (Bos taurus) for C/C=C/C[C@@H](C)[C@@H](O)[C@H]1C(=O)N[C@@H](CCC)C(=O)N(C)CC(=O)N(C)[C@@H](CC(C)C)C(=O)N[C@@H](C(C)C)C(=O)N(C)[C@@H](CC(C)C)C(=O)N[C@@H](C)C(=O)N[C@H](C)C(=O)N(C)[C@@H](CC(C)C)C(=O)N(C)[C@@H](CC(C)C)C(=O)N(C)[C@@H](C(C)C)C(=O)N1C [CsG] ?
Response: 0.30
